# Lookup of reported one-hybrid fitness for binding parS DNA keyed by entry
B1: Caulobacter ParB omega fusion; a variant is named by its letters at X, in order, B8GW30 (parent)
chain: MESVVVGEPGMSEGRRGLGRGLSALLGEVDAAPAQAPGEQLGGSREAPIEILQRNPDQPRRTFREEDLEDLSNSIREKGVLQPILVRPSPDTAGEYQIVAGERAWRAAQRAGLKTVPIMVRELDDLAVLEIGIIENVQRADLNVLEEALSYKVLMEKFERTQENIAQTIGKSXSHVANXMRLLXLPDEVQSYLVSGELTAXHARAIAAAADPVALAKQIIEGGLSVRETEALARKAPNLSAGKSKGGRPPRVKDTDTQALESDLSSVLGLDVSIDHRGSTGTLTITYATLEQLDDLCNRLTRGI

- Variants of: B1
- testName: one-hybrid fitness for binding parS DNA (scaled: cognate 1, non-cognate 0); higher = stronger binding
- assaySetup: with parS DNA site
The full ranking holds about 81,000 sequences; the median of “one-hybrid fitness for binding parS DNA” is about -0.17, and the highest 2% start at about 0.51. The entries come from a sample that favours the highest values as a whole.
quantity: one-hybrid fitness for binding parS DNA

INSERT INTO measurements (mutationcode, relationqualifier, reportedresult) VALUES
  ('RYGG', '=', 0.97),
  ('ILCT', '≤', 0.2),
  ('IYAV', '≤', 0.2),
  ('RYGF', '=', 0.205),
  ('GTPS', '≤', 0.2),
  ('SISG', '≤', 0.2),
  ('RARP', '≤', 0.2),
  ('RANG', '=', 1),
  ('RNQN', '=', 0.284),
  ('RSIN', '=', 0.269),
  ('REKA', '≤', 0.2),
  ('RKEP', '≤', 0.2),
  ('RYGR', '≤', 0.2),
  ('RNAD', '≤', 0.2),
  ('RYLM', '=', 0.324),
  ('RRHG', '=', 0.72),
  ('RIGA', '=', 0.661),
  ('KCMT', '≤', 0.2),
  ('RHGF', '≤', 0.2),
  ('RAYG', '=', 1.01),
  ('RMEP', '≤', 0.2),
  ('RYLY', '=', 0.462),
  ('RIRA', '=', 0.672),
  ('RHCT', '=', 0.766),
  ('RMES', '=', 0.956),
  ('RNAS', '=', 0.914),
  ('RACG', '=', 0.971),
  ('VGER', '≤', 0.2),
  ('RFAC', '=', 0.91),
  ('DFGS', '≤', 0.2),
  ('RPIC', '≤', 0.2),
  ('RAIM', '=', 0.209),
  ('RSIH', '≤', 0.2),
  ('RYWK', '≤', 0.2),
  ('RQGL', '≤', 0.2),
  ('MAKW', '≤', 0.2),
  ('GDAW', '≤', 0.2),
  ('QFWR', '≤', 0.2),
  ('PRIM', '≤', 0.2),
  ('RKES', '=', 0.899),
  ('ASAS', '≤', 0.2),
  ('VMQS', '≤', 0.2),
  ('RPHA', '≤', 0.2),
  ('RIHA', '=', 0.574),
  ('RNQC', '=', 0.82),
  ('RFAN', '=', 0.372),
  ('RYSD', '≤', 0.2),
  ('RMED', '≤', 0.2),
  ('RNHA', '=', 0.438),
  ('RHQT', '=', 0.853),
  ('RRLK', '≤', 0.2),
  ('DNWC', '≤', 0.2),
  ('RRHM', '=', 0.424),
  ('YDLT', '≤', 0.2),
  ('PWHI', '≤', 0.2),
  ('NAHA', '≤', 0.2),
  ('RHSF', '≤', 0.2),
  ('RAIC', '=', 0.782),
  ('QKRV', '≤', 0.2),
  ('VDML', '≤', 0.2),
  ('RHGT', '=', 0.832),
  ('QNNR', '≤', 0.2),
  ('DLHA', '≤', 0.2),
  ('RDIC', '≤', 0.2),
  ('RYWQ', '≤', 0.2),
  ('QVMA', '≤', 0.2),
  ('RWHA', '=', 0.378),
  ('RIQA', '=', 0.576),
  ('RHST', '=', 0.854),
  ('MWMK', '≤', 0.2),
  ('RHSY', '=', 0.41),
  ('RIEA', '=', 0.451),
  ('TFSM', '≤', 0.2),
  ('ACMT', '≤', 0.2),
  ('IDST', '≤', 0.2),
  ('FPSI', '≤', 0.2),
  ('DLNV', '≤', 0.2),
  ('RYLG', '=', 0.986),
  ('AEQK', '≤', 0.2),
  ('SLYK', '≤', 0.2),
  ('RIEP', '≤', 0.2),
  ('RRHY', '=', 0.446),
  ('RNFD', '≤', 0.2),
  ('TIDL', '≤', 0.2),
  ('RFFC', '=', 0.674),
  ('RHCN', '=', 0.381),
  ('GPFR', '≤', 0.2),
  ('RTEH', '=', 0.208),
  ('RARD', '≤', 0.2),
  ('RFFY', '=', 0.269),
  ('RSKA', '=', 0.716);
